system: hemolysin alpha from Staphylococcus aureus (Staphylococcus aureus, UniProt P09616)
Sequence (P09616 27-319 limits assumed): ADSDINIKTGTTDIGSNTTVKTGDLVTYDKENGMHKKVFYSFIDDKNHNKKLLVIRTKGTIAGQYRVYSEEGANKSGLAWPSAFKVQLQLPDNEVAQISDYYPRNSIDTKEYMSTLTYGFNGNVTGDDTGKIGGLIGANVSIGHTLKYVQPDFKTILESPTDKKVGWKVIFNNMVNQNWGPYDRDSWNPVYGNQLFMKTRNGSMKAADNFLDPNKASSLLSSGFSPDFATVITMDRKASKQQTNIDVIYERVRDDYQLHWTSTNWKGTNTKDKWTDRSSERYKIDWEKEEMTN
assay-method-text: cell-based
// values below are reported IC50

{"columns": ["given-smiles", "IC50"],
 "data": [
  ["O=c1[nH]c2cc(F)c(S(=O)(=O)Nc3ccc(-c4cccc(Cl)c4)c(Cl)c3)cc2[nH]c1=O", "30 to 100 nM"],
  ["Cc1cc2[nH]c(=O)c(=O)[nH]c2cc1S(=O)(=O)Nc1ccc(C(F)(F)F)cc1", "30 to 100 nM"],
  ["O=c1[nH]c2cc(Cl)c(S(=O)(=O)Nc3ccc(-c4ccccc4)c(Cl)c3)cc2[nH]c1=O", "< 30 nM"]
]}

Proceeding to the next compound to report its IC50.
Record summary for `Cc1cc(NS(=O)(=O)c2cc3[nH]c(=O)c(=O)[nH]c3cc2Cl)ccc1-c1ccccc1` : reported IC50 = 30 to 100 nM
